Where these numbers come from: PubChem BioAssay AID256

System: CD2F1 mice, L1210 leukemia ip, survival T/C
Experiment: NCI In Vivo Anticancer Drug Screen. Data for tumor model L1210 Leukemia (intraperitoneal) in CD2F1 (CDF1) mice
Settings: endpoint: mean survival time; dose: 25.0 mg/kg/injection; schedule: Q01DX009 (ip); vehicle: other; higher = longer survival
Toxic doses and inconclusive results are not listed.
observed property: T/C

Worked examples, 4 compounds total:
>  <compound>
CC1=C(O)C(=O)OC1c1ccc(C)cc1 (stereo not given)

>  <T/C>
98 % of control

$$$$
>  <compound>
CCCCCCCCCCCCSC1=CC(=O)C(OC)=C(OC)C1=O

>  <T/C>
94 % of control

$$$$
>  <compound>
COc1nc(Cl)nc(Cl)c1Cl (tested in a mixture with another compound)

>  <T/C>
93 % of control

$$$$
>  <compound>
CSc1nccc2ccccc12

>  <T/C>
106 % of control

$$$$

Pending compound:
# query: T/C of entry Cc1cccc(C)c1N=NN(C)C 100 % of control

---

Tested on: CD2F1 mice, L1210 leukemia ip, survival T/C
Assay: NCI In Vivo Anticancer Drug Screen. Data for tumor model L1210 Leukemia (intraperitoneal) in CD2F1 (CDF1) mice
Details: endpoint: mean survival time; dose: 100.0 mg/kg/injection; schedule: Q04DX002 (ip); vehicle: saline with Tween-80; higher = longer survival
Toxic doses and inconclusive results are not listed.
observed property: T/C

These recorded examples may help you get a feel for the data.
>  <compound>
CC(C)CCC(=O)/C=C\c1ccccc1

>  <T/C>
96 % of control

$$$$
>  <compound>
CC(Nc1ccccc1)C(=O)N1CCC(Nc2ccccc2)CC1 (stereo unspecified)

>  <T/C>
94 % of control

$$$$
>  <compound>
CC1(C)N=C(N)N=C(N)N1c1cccc([N+](=O)[O-])c1

>  <T/C>
96 % of control

$$$$
>  <compound>
N#CCCN=C1C=CC(=C(c2ccc(NCCC#N)cc2)c2ccc(Cl)cc2Cl)C=C1

>  <T/C>
117 % of control

$$$$
>  <compound>
O=C1c2ccccc2C(=O)N1CC(O)COc1ccccc1[N+](=O)[O-] (stereo unspecified)

>  <T/C>
88 % of control

$$$$

--- query ---
What measured T/C goes with COc1cc(NC(=O)Nc2ccccc2Cl)c(OC)cc1Cl ? 102 % of control

---

Tested on: CD2F1 mice, L1210 leukemia ip, survival T/C
Assay: NCI In Vivo Anticancer Drug Screen. Data for tumor model L1210 Leukemia (intraperitoneal) in CD2F1 (CDF1) mice
Conditions: endpoint: mean survival time; dose: 12.5 mg/kg/injection; schedule: Q04DX003 (ip); vehicle: saline; higher = longer survival
Toxic doses and inconclusive results are not listed.
observed property: T/C

Example entries begin here.
>  <molecule>
C=CCn1c(NCCN(CC)CC)nc2ccc(Cl)cc2c1=O

>  <T/C>
100 % of control

$$$$
>  <molecule>
CCCC(=O)NN=C(C)C

>  <T/C>
105 % of control

$$$$
>  <molecule>
[Au].[NH-]C1CCCCC1[NH-].[NH-]C1CCCCC1[NH-] (centres undefined)

>  <T/C>
97 % of control

$$$$

Consider the record given below.
# query: T/C of entry C=C(Br)CN(CC)C(C)=O 96 % of control

---

Test system: CD2F1 mice, L1210 leukemia ip, survival T/C
Experiment: NCI In Vivo Anticancer Drug Screen. Data for tumor model L1210 Leukemia (intraperitoneal) in CD2F1 (CDF1) mice
Conditions: endpoint: mean survival time; dose: 200.0 mg/kg/injection; schedule: Q04DX002 (ip); vehicle: saline with Tween-80; higher = longer survival
Toxic doses and inconclusive results are not listed.
observed property: T/C

Some molecules with recorded T/C:
>  <molecule>
CC(=O)CCC(=O)C1SCCS1

>  <target>
CD2F1 mice, L1210 leukemia ip, survival T/C

>  <observed property>
T/C

>  <reported value>
97 % of control

$$$$
>  <molecule>
CCCCCCCCCCCCCCCC(=O)Nc1ccccc1CC

>  <target>
CD2F1 mice, L1210 leukemia ip, survival T/C

>  <observed property>
T/C

>  <reported value>
95 % of control

$$$$
>  <molecule>
CCCCCCCCCCCCCCCC(=O)Nc1ccc(CC)cc1

>  <target>
CD2F1 mice, L1210 leukemia ip, survival T/C

>  <observed property>
T/C

>  <reported value>
91 % of control

$$$$
>  <molecule>
COc1ccc(COC(=O)Nc2ccc(Cl)cc2)cc1OC

>  <target>
CD2F1 mice, L1210 leukemia ip, survival T/C

>  <observed property>
T/C

>  <reported value>
100 % of control

$$$$

T/C lookup needed for O=C1C2CCCC1C1/C(=[N+](/[O-])O)C=C([N+](=O)[O-])C2C1[N+](=O)[O-] (stereo unspecified) , thanks. 98 % of control

Which T/C reading was recorded for the molecule c1ccc(CCCNc2nnnc3ccccc23)cc1 ? 103 % of control

---

Test system: CD2F1 mice, L1210 leukemia ip, survival T/C
Assay: NCI In Vivo Anticancer Drug Screen. Data for tumor model L1210 Leukemia (intraperitoneal) in CD2F1 (CDF1) mice
Conditions: endpoint: mean survival time; dose: 100.0 mg/kg/injection; schedule: Q04DX003 (ip); vehicle: saline sonified; higher = longer survival
Inconclusive results and toxic doses are left out.
observed property: T/C

>  <compound>
O=c1c2cccc3c2-c2c4c(cccc14)c(O)c1cccc(c3=O)c21

>  <T/C>
94 % of control

$$$$
>  <compound>
C[C@]1(O)CC[C@H]2[C@@H]3CCC4=CC(=O)CC[C@]4(C)[C@@]3(Cl)[C@@H](O)C[C@@]21C

>  <T/C>
101 % of control

$$$$

Item under review: O=c1cnn(C2OC(CO)C(O)C2O)c(=S)[nH]1 (stereo not drawn) . Reported T/C? 102 % of control

---

Tested on: CD2F1 mice, L1210 leukemia ip, survival T/C
Test: NCI In Vivo Anticancer Drug Screen. Data for tumor model L1210 Leukemia (intraperitoneal) in CD2F1 (CDF1) mice
Conditions: endpoint: mean survival time; dose: 50.0 mg/kg/injection; schedule: Q04DX002 (ip); vehicle: saline with Tween-80; higher = longer survival
Toxic doses and inconclusive results are not listed.
observed property: T/C

Worked cases, answers included:
>  <molecule>
CC(C)CCC(=O)/C=C\c1ccccc1

>  <T/C>
104 % of control

$$$$
>  <molecule>
C[N+](C)(C)C.[Cl-].[Cl-].[Cl][Sn]([Cl])[Cl].[Cl][Sn]([Cl])[Cl].[Ru+]

>  <T/C>
96 % of control

$$$$
>  <molecule>
CCC(=O)OC(=N)C(=N)OC(=O)CC

>  <T/C>
98 % of control

$$$$

Param item = O=C(OC1(c2ccccc2)C2C=CC1CC2)c1ccc([N+](=O)[O-])cc1 (stereo not drawn) ; retrieve measured T/C. 102 % of control

For the molecule shown here, CC(=O)OC1CSC(C(C)(C)C)SC1 (stereo not drawn) , give the reported T/C. 108 % of control

Find the recorded T/C belonging to CCOC(=O)c1ccc(NC(=O)Nc2cc(Cl)c(Cl)cc2C)cc1 and report it. 91 % of control

Entry under review: CCCCOC(=O)C1C2CCC(O2)C1C(N)=O (stereo not drawn) . Reported T/C? 101 % of control

---

System: CD2F1 mice, L1210 leukemia ip, survival T/C
Test: NCI In Vivo Anticancer Drug Screen. Data for tumor model L1210 Leukemia (intraperitoneal) in CD2F1 (CDF1) mice
Conditions: endpoint: mean survival time; dose: 100.0 mg/kg/injection; schedule: Q01DX009 (ip); vehicle: saline with Tween-80; higher = longer survival
Inconclusive results and toxic doses are left out.
This section presents compounds with their documented T/C values.

>  <compound>
NC(=O)SCCCCl

>  <T/C>
103 % of control

$$$$

Query (compound): COc1cc(OC)c(NC(=O)Nc2ccccc2C(N)=O)cc1Cl ; field requested: T/C 96 % of control

Look up T/C for this compound: COc1cc(Cl)ccc1NC(=O)Oc1ccc(Cl)cc1Br 96 % of control

Request the reported T/C associated with COC(=O)C1C2OC(C(Br)C2Br)C1C(=O)OC (configuration not stated) 100 % of control

# get_value(readout='T/C', item= O/N=C1/CCCC/C1=C/c1ccccc1Cl ) 95 % of control

Please look up its T/C: O=C(NC(O)C(Cl)(Cl)Cl)C(Cl)(Cl)Cl (configuration not stated) 89 % of control

Endpoint output: T/C of CC1(C)OC2COC(OCc3ccccc3)C(OCc3ccccc3)C2O1 (configuration not stated) . Value? 104 % of control

Name the reported T/C value associated with the compound C=CCOC(=O)CCCCCCCCC(=O)OCC=C 97 % of control

Need T/C of COc1ccc(CC(=O)O)cc1OC (tested in a mixture with another compound) , thanks. 96 % of control
